test system: rodent lifetime carcinogenesis bioassay, tumor incidence TD50; assay: carcinogenic potency in animals, long-term in vivo studies, CPDB compilation (AID 1745844); conditions: rat; strain Sprague-Dawley; females; by gavage; site: liver; lesion: hepatocellular adenoma; dosed 167 weeks; study length 167 weeks
parameter.measured: TD50 (mg/kg/day)
Number only, in mg/kg/day; omit the unit.

Endpoint output: TD50 of CC/C(=C(\c1ccccc1)c1ccc(OCCN(C)C)cc1)c1ccccc1 . Value?
497

###

test system: rodent lifetime carcinogenesis bioassay, tumor incidence TD50; experiment: carcinogenic potency in animals, long-term in vivo studies, CPDB compilation (AID 1745844); conditions: mouse; strain B6C3F1; females; in feed; site: any site (literature study); lesion: several types; types named in the paper; dosed 78 weeks; study length 93 weeks
parameter.measured: TD50 (mg/kg/day)
Number only, in mg/kg/day; omit the unit.

Endpoint output: TD50 of CCOc1ccc(NC(C)=O)cc1N . Value?
569

###

tested on: rodent lifetime carcinogenesis bioassay, tumor incidence TD50; test: carcinogenic potency in animals, long-term in vivo studies, CPDB compilation (AID 1745844); settings: rat; strain Sprague-Dawley; males; in drinking water; site: liver; lesion: hepatocellular adenoma; dosed 162 weeks; study length 167 weeks
parameter.measured: TD50

Endpoint output: TD50 of O=NN(CCO)CCO . Value?
347 mg/kg/day

###

test system: rodent lifetime carcinogenesis bioassay, tumor incidence TD50; test: carcinogenic potency in animals, long-term in vivo studies, CPDB compilation (AID 1745844); details: mouse; strain B6C3F1; females; by gavage; site: liver; lesion: hepatocellular carcinoma; dosed 102 weeks; study length 105 weeks
parameter.measured: TD50

Endpoint output: TD50 of ClC(Cl)Br . Value?
144 mg/kg/day

###

test system: rodent lifetime carcinogenesis bioassay, tumor incidence TD50; experiment: carcinogenic potency in animals, long-term in vivo studies, CPDB compilation (AID 1745844); settings: mouse; strain B6C3F1; males; in feed; site: liver; lesion: hepatocellular carcinoma; dosed 80 weeks; study length 90 weeks
Kindly supply the reported TD50 values for the records listed here.

Endpoint output: TD50 of Cc1c([N+](=O)[O-])c(C)c([N+](=O)[O-])c(C(C)(C)C)c1[N+](=O)[O-] . Value?
313 mg/kg/day

Endpoint output: TD50 of COP(=O)(OC)OC(=CCl)c1cc(Cl)c(Cl)cc1Cl . Value?
534 mg/kg/day

Endpoint output: TD50 of ClC1=C(Cl)C2(Cl)C3C(Cl)C(Cl)CC3C1(Cl)C2(Cl)Cl (centres undefined) . Value?
2.15 mg/kg/day

Endpoint output: TD50 of ClC1=C(Cl)[C@]2(Cl)[C@H]3[C@H]([C@@H]4C=C[C@H]3C4)[C@@]1(Cl)C2(Cl)Cl . Value?
0.741 mg/kg/day

###

test system: rodent lifetime carcinogenesis bioassay, tumor incidence TD50; assay: carcinogenic potency in animals, long-term in vivo studies, CPDB compilation (AID 1745844); details: rat; strain Wistar; males; inhaled; site: nasal cavity; lesion: olfactory epithelial carcinoma; dosed 52 weeks; study length 52 weeks
parameter.measured: TD50

Record lookup: for rodent lifetime carcinogenesis bioassay, tumor incidence TD50, what TD50 belongs to C=CCl ?
533 mg/kg/day

###

test system: rodent lifetime carcinogenesis bioassay, tumor incidence TD50; assay: carcinogenic potency in animals, long-term in vivo studies, CPDB compilation (AID 1745844); conditions: mouse; strain C57BL/10J; females; i.p.; site: liver; lesion: hepatocellular adenoma; dosed 35 weeks; study length 59 weeks
parameter.measured: TD50

Endpoint output: TD50 of C=COC(N)=O . Value?
4.99 mg/kg/day

###

tested on: rodent lifetime carcinogenesis bioassay, tumor incidence TD50; experiment: carcinogenic potency in animals, long-term in vivo studies, CPDB compilation (AID 1745844); details: rat; strain Fischer; males; in feed; site: urinary bladder; lesion: carcinoma, noninvasive; dosed 36 weeks; study length 74 weeks
parameter.measured: TD50 (mg/kg/day)
Number only, in mg/kg/day; omit the unit.

Endpoint output: TD50 of O=CNc1nc(-c2ccc([N+](=O)[O-])o2)cs1 . Value?
60.5

###

tested on: rodent lifetime carcinogenesis bioassay, tumor incidence TD50; experiment: carcinogenic potency in animals, long-term in vivo studies, CPDB compilation (AID 1745844); details: mouse; strain B6C3F1; males; by gavage; site: liver; lesion: hepatoblastoma; dosed 103 weeks; study length 104 weeks
parameter.measured: TD50

Record lookup: for rodent lifetime carcinogenesis bioassay, tumor incidence TD50, what TD50 belongs to O=c1ccc2ccccc2o1 ?
632 mg/kg/day

Record lookup: for rodent lifetime carcinogenesis bioassay, tumor incidence TD50, what TD50 belongs to c1ccc2occc2c1 ?
102 mg/kg/day

###

system: rodent lifetime carcinogenesis bioassay, tumor incidence TD50; assay: carcinogenic potency in animals, long-term in vivo studies, CPDB compilation (AID 1745844); conditions: hamster; strain Syrian Golden; males; by gavage; site: spleen; lesion: hemangiosarcoma; dosed 40 weeks; study length 75 weeks
parameter.measured: TD50

Endpoint output: TD50 of CC(=O)CN(N=O)C(N)=O . Value?
0.14 mg/kg/day

###

system: rodent lifetime carcinogenesis bioassay, tumor incidence TD50; experiment: carcinogenic potency in animals, long-term in vivo studies, CPDB compilation (AID 1745844); settings: hamster; strain Syrian Golden; females; by gavage; site: nasal mucosa; lesion: several types; types named in the paper; dosed 61 weeks; study length 106 weeks
parameter.measured: TD50

Endpoint output: TD50 of CN(C)CCN(C)N=O . Value?
2.76 mg/kg/day

###

tested on: rodent lifetime carcinogenesis bioassay, tumor incidence TD50; assay: carcinogenic potency in animals, long-term in vivo studies, CPDB compilation (AID 1745844); settings: rat; strain BD VI; females; by gavage; site: esophagus; lesion: several types; types named in the paper; dosed 72 weeks; study length 72 weeks
parameter.measured: TD50

Endpoint output: TD50 of CN(N=O)c1ccccn1 . Value?
0.214 mg/kg/day

###

system: rodent lifetime carcinogenesis bioassay, tumor incidence TD50; test: carcinogenic potency in animals, long-term in vivo studies, CPDB compilation (AID 1745844); conditions: rat; strain Fischer 344; males; inhaled; site: mammary gland; lesion: fibroadenoma + fibroadenoma, multiple; dosed 104 weeks; study length 104 weeks
parameter.measured: TD50

Endpoint output: TD50 of C=CC(=C)C . Value?
655 mg/kg/day

###

tested on: rodent lifetime carcinogenesis bioassay, tumor incidence TD50; assay: carcinogenic potency in animals, long-term in vivo studies, CPDB compilation (AID 1745844); details: rat; strain Sprague-Dawley; males; in feed; site: any site (literature study); lesion: malignant tumor; dosed 105 weeks; study length 105 weeks
Activity calls are given as the source filed them. The rule behind the calls is not given here.
parameter.measured: TD50

Endpoint output: TD50 of C/C(=C(\CCOC(=O)c1ccccc1)SC(=O)c1ccccc1)N(C=O)Cc1cnc(C)nc1N . Value?
2340 mg/kg/day (inactive)

###

system: rodent lifetime carcinogenesis bioassay, tumor incidence TD50; test: carcinogenic potency in animals, long-term in vivo studies, CPDB compilation (AID 1745844); settings: rat; strain Chester Beatty albino; females; in drinking water; site: esophagus; lesion: squamous-cell carcinoma; dosed 73 weeks; study length 73 weeks
parameter.measured: TD50

Endpoint output: TD50 of O=NN1CCCC[C@H]1c1cccnc1 . Value?
413 mg/kg/day

###

system: rodent lifetime carcinogenesis bioassay, tumor incidence TD50; assay: carcinogenic potency in animals, long-term in vivo studies, CPDB compilation (AID 1745844); settings: rat; strain Fischer 344; males; by gavage; site: liver; lesion: hepatocellular carcinoma; dosed 35 weeks; study length 52 weeks
parameter.measured: TD50

Endpoint output: TD50 of Cn1c(N)nc2c3cccnc3ccc21 . Value?
0.579 mg/kg/day

###

test system: rodent lifetime carcinogenesis bioassay, tumor incidence TD50; assay: carcinogenic potency in animals, long-term in vivo studies, CPDB compilation (AID 1745844); conditions: rat; strain Fischer 344; females; by gavage; site: adrenal medulla; lesion: pheochromocytoma, benign; dosed 103 weeks; study length 105 weeks
parameter.measured: TD50 (mg/kg/day)
Number only, in mg/kg/day; omit the unit.

Endpoint output: TD50 of Nc1ccc(Cl)cc1 . Value?
105

###

system: rodent lifetime carcinogenesis bioassay, tumor incidence TD50; assay: carcinogenic potency in animals, long-term in vivo studies, CPDB compilation (AID 1745844); conditions: rat; strain Fischer 344; males; in feed; site: body cavities + multiple organs; lesion: mesothelioma, NOS + fibrosarcoma + sarcoma, NOS; dosed 103 weeks; study length 107 weeks
parameter.measured: TD50

Endpoint output: TD50 of Nc1ccccc1 . Value?
572 mg/kg/day

###

system: rodent lifetime carcinogenesis bioassay, tumor incidence TD50; test: carcinogenic potency in animals, long-term in vivo studies, CPDB compilation (AID 1745844); conditions: rat; strain Alpk:APfSD; males; by gavage; site: liver; lesion: hepatocellular carcinoma; dosed 88 weeks; study length 107 weeks
parameter.measured: TD50

Endpoint output: TD50 of CC/C(=C(\c1ccccc1)c1ccc(OCCN(C)C)cc1)c1ccccc1 . Value?
18.7 mg/kg/day
